// provenance: the RNAGym collection of RNA variant scans (doi:10.7554/elife.90254)

B1: OR4K15 (parent)
chain: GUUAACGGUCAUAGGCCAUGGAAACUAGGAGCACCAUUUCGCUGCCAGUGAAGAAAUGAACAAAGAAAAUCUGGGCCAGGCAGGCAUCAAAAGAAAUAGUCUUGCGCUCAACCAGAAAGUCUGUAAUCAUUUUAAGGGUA

- Variants of: B1
- Experiment: self-cleavage, relative activity (ratio to wild type); higher = more cleavage; in vitro, sequencing; the parent is a self-cleaving ribozyme
Endpoint label: self-cleavage
Write no unit; give the number alone.

Below, 5 variants whose answers are already recorded.
* GUUAACGGUCAUAGGCCAUGGAAACUAGGAGCACCAUUUCGCUGCCAGUGAAGAAAUGAACAAAGAAAAUCUGGGCCAGGCUGGCAUCAAAAGAAAUAGUCUUGCGCUCAACCAGACAGUCUGUAAUCAUUUUAAGGGUA [A82U A117C] | 0.04
* GUUAACGGUCAUAGGCCAUGGAAACUAGGAGCACCAUUUCGCUGCCAGUGAAGAAAUGAACAAAGAAAAUCUGGGCCAGGCAGGCAUCAAAAGAAGUAGUCUUGCGCUCAACUAGAAAGUCUGUAAUCAUUUUAAGGGUA [A96G C113U] | 0.06
* GUUAACGGUCAUAGGCCAUGGAAACUAGGAGCACCAUUUCGCUGCCAGUGAAAAAAUGAACAAAGAAAAUCUGGGCCAGGCAGGCAUCAAAAGAAAUAGUCUUGCGCUCAACCAGAAAGUCUGUAAUAAUUUUAAGGGUA [G53A C128A] | 0.93
* GUUAACGGUCAUAGGCCAUGGAAACUAGGAGCACCAUUUCGCUGCCAGUGAAGAAGUGAACAAAGAAAAUCUGGGCCAGGCAGGCAUCAAAAGAAAUAGUCUUGCGCUCAACCAGAAAGUCCGUAAUCAUUUUAAGGGUA [A56G U122C] | 0.91
* GUUAACGGUCAUAGGCCAUGGAAACUAGGAGCACCAUUUCGCUGCCAGUGAAGAAAUGAACGAAGAAAAUCUGGGCCAGGCAGGCAUCAAAAGUAAUAGUCUUGCGCUCAACCAGAAAGUCUGUAAUCAUUUUAAGGGUA [A62G A94U] | 2.08

# lookup: self-cleavage of GUUAACGGUCAUAGGCCAUGGUAACUAGGAGCACCAUUUCGCUGCCAGUGAAGAAAUGAACAAAGAAACUCUGGGCCAGGCAGGCAUCAAAAGAAAUAGUCUUGCGCUCAACCAGAAAGUCUGUAAUCAUUUUAAGGGUA [A22U A69C] 0.47

# lookup: self-cleavage of GUUAACGGUCAUAGGCCACGGAAACUAGGAGCACCAUUUCGCUGCCAGUGAAGAAAUGAACAAAGAAAACCUGGGCCAGGCAGGCAUCAAAAGAAAUAGUCUUGCGCUCAACCAGAAAGUCUGUAAUCAUUUUAAGGGUA [U19C U70C] 0.7

# lookup: self-cleavage of GUUAACGGUCAUAGGCCAUGGAAACUAGGAGCACCAUUUCGCUGCCAGUGAAGAAAUGAACAAAGAAAAUCUGGGCCAGGCAGGCAUCAAAAGAAAUGGCCUUGCGCUCAACCAGAAAGUCUGUAAUCAUUUUAAGGGUA [A98G U100C] 2.04

# lookup: self-cleavage of GUUAACGGUCAUAGGCCAUGGAAACUAGGAGCACCAUUUCGCUGCCAGUGAAGAAAUGAACAAAGAAAAUCUGGGCCUGGCUGGCAUCAAAAGAAAUAGUCUUGCGCUCAACCAGAAAGUCUGUAAUCAUUUUAAGGGUA [A78U A82U] 0.15

# lookup: self-cleavage of GUUAACGGUCGUAGGCCAUGGAAACUAGGAGCACCAUUUCGCUGCCAGUGAAGAAAUGAACAAAGAAAAUCUGGGCCAGGCUGGCAUCAAAAGAAAUAGUCUUGCGCUCAACCAGAAAGUCUGUAAUCAUUUUAAGGGUA [A11G A82U] 0.2

# lookup: self-cleavage of GUUAACGGUCAUAGGCCAUGGAAACUAGGAGCACCAUUUCGCUGCCAGCGAAGAAAUGAGCAAAGAAAAUCUGGGCCAGGCAGGCAUCAAAAGAAAUAGUCUUGCGCUCAACCAGAAAGUCUGUAAUCAUUUUAAGGGUA [U49C A60G] 1.24

# lookup: self-cleavage of GUUAACGGUCGUAGGCCAUGGAAACUAGGAGCACCAUUUCGCUGCCAGUGAAGAAAUGAACAAAGAAAAUCUGGGCCAGGCAGGCAUCAAAAGAAAUAGUCUUGCGCUCAAUCAGAAAGUCUGUAAUCAUUUUAAGGGUA [A11G C112U] 0.05

# lookup: self-cleavage of GUUAACGGUCAUAGGCCAUGGAAACUGGGAGCACCAUUUCGCUGCCAGUGAAGAAAUGAACAAAGAAAAUCUGGGCCAGGCAGGCAUCAAAAGAAAUAGUCUUGCGCUCAACCAGAAAGCCUGUAAUCAUUUUAAGGGUA [A27G U120C] 0.68

# lookup: self-cleavage of GUUAACGGUCAUAGGCCAUGGCAACUAGGAGCACCAUUUCGCUGCCAGUGAAGAAAUGAACAAAGAAAAUCUGGGCCAGGCAGGCAUCAAAAGAAAUAGUCUUGCGCUCAACCAGAAAGUCUGUAACCAUUUUAAGGGUA [A22C U127C] 1.48

# lookup: self-cleavage of GUUAACGGUCAUAGGCCAUGGAAACUAGGAGCACCUUUUCGCUGCCAGUGAAGAAAUGAACAAAGAAAAUCUGGGCCGGGCAGGCAUCAAAAGAAAUAGUCUUGCGCUCAACCAGAAAGUCUGUAAUCAUUUUAAGGGUA [A36U A78G] 0.21

# lookup: self-cleavage of GUUAACGGUCAUAGGCCAUGGAAACUAGGAGUACCAUUUCGCUGCCAGUGAAGAAAUGAACAAAGAGAAUCUGGGCCAGGCAGGCAUCAAAAGAAAUAGUCUUGCGCUCAACCAGAAAGUCUGUAAUCAUUUUAAGGGUA [C32U A67G] 1.67

# lookup: self-cleavage of GUUAACGGUCAUAGGCCAUGGAUACUAGGUGCACCAUUUCGCUGCCAGUGAAGAAAUGAACAAAGAAAAUCUGGGCCAGGCAGGCAUCAAAAGAAAUAGUCUUGCGCUCAACCAGAAAGUCUGUAAUCAUUUUAAGGGUA [A23U A30U] 0.26

# lookup: self-cleavage of GUUAACGGUCAUAGGCCAUGGAAACUAGGAGCACCAUUUCGCUGCCAGUGAAGAAAUGAACAAAGAAAAUCUGGGCCAGGCAGGCAUCAAAAGAAAUAGUCUUGCGCUCAACCAGAGAGUCUGUAGUCAUUUUAAGGGUA [A117G A126G] 1.27

# lookup: self-cleavage of GUUAACGGUCAUAGGCCAUGGAAACUAGGAGCACCAUUUCGCUGCCAGUGAAGAAAUGAACAAAGAAAAUCUGGGCCUGGCAGGCACCAAAAGAAAUAGUCUUGCGCUCAACCAGAAAGUCUGUAAUCAUUUUAAGGGUA [A78U U87C] 0.31

# lookup: self-cleavage of GUUAACGGACAUAGGCCAUGGAAACUAGGAGCACCAUUUCGCUGCCAGUGAAGAAAUGAACAAAGAAAAUCUGGGCCAGGCAGGCAUCAAAAGAAAUAGUCUUGCGCUCAACCAGAAAGUCUGUAAUCACUUUAAGGGUA [U9A U130C] 1.33
